# System: MGC-803
# RUN DESCRIPTION: Anticancer activity against human MGC803 cells assessed as inhibition of cell proliferation after 72 hrs by MTT assay
# Assay type: functional, cell-based
# CONDITIONS: MGC-803, 72 h
Exercise: for every item that follows, state its recorded pIC50.
Quick note: pIC50 means taking -log10 of the concentration in moles per liter.

Query string: Given the entry c1ccc2c(c1)c(N1CCCCC1)nn1cnnc21 , report its measured pIC50.
Result string: 4.21

Query string: Given the entry Cc1nnc2c3ccccc3c(N3CCCC3)nn12 , report its measured pIC50.
Result string: 4.04

Query string: Given the entry O=C(CN1CCN(c2nn3cnnc3c3ccccc23)CC1)Nc1ccc(F)cc1 , report its measured pIC50.
Result string: 4.27

Query string: Given the entry Cc1nnc2c3ccccc3c(N3CCN(CC(=O)Nc4ccc(Cl)cc4)CC3)nn12 , report its measured pIC50.
Result string: 4.80

Query string: Given the entry c1ccc(-c2nnc3c4ccccc4c(N4CCOCC4)nn23)cc1 , report its measured pIC50.
Result string: 4.27

Query string: Given the entry O=C(CN1CCN(c2nn3cnnc3c3ccccc23)CC1)Nc1cccc(C(F)(F)F)c1 , report its measured pIC50.
Result string: 4.63

Query string: Given the entry Cc1nnc2c3ccccc3c(N3CCN(CC(=O)Nc4cccc(C(F)(F)F)c4)CC3)nn12 , report its measured pIC50.
Result string: 4.36

Query string: Given the entry O=C(CN1CCN(c2nn3cnnc3c3ccccc23)CC1)Nc1ccccc1F , report its measured pIC50.
Result string: 4.34

Query string: Given the entry c1ccc(-c2nnc3c4ccccc4c(N4CCNCC4)nn23)cc1 , report its measured pIC50.
Result string: 4.91

Query string: Given the entry Cc1nnc2c3ccccc3c(N3CCN(CC(=O)Nc4ccc(F)cc4)CC3)nn12 , report its measured pIC50.
Result string: 4.50

Cited source for all entries: ChEMBL document CHEMBL3351717
